pIC50: −log10 of the molar value.
Measure name: pIC50

# pIC50 measured on Thymidylate synthase (Homo sapiens) for item Nc1nc2[nH]c(CCCCc3ccc(C(=O)N[C@@H](CCC(=O)O)C(=O)O)cc3)cc2c(=O)[nH]1 = < 4.77

Record Nc1nc2[nH]c(CCCc3ccc(C(=O)N[C@@H](CCC(=O)O)C(=O)O)cc3)cc2c(=O)[nH]1 ; system Thymidylate synthase (Homo sapiens); pIC50 = < 4.77

Value sought: pIC50, system Thymidylate synthase (Homo sapiens), item Nc1nc(N)c2c(CCCCc3ccc(C(=O)N[C@@H](CCC(=O)O)C(=O)O)cc3)coc2n1 . Result: < 4.74
